Values from patent US8551999B2

ENDPOINT_LABEL: melting point

INSERT INTO assay_data (molecular_string, endpoint_label, measured) VALUES
  ('CS(=O)(=O)O.CS(=O)(=O)O.Cn1c(C(=O)N2CCN(Cc3ccccn3)CC2)cc2cc(Oc3ccc(NC(=O)c4ccc(C(F)(F)F)cc4)cn3)ccc21', 'melting point', '137 to 139 °C'),
  ('Br.COc1ccc(CN2CCN(C(=O)c3cc4cc(Oc5ccc(N(C)C(=O)c6ccc(C(F)(F)F)c(C)c6)cn5)ccc4n3C)CC2)cc1', 'melting point', '199 to 202 °C'),
  ('Br.CC(C)CN1CCN(C(=O)c2cc3cc(Oc4ccc(NC(=O)c5ccc(Cl)c(Cl)c5)cn4)ccc3n2C)CC1', 'melting point', '251 to 254 °C'),
  ('CCN(C(=S)Nc1ccc(Cl)c(Cl)c1)c1ccc(Oc2ccc3c(c2)cc(C(=O)N2CCN(Cc4ccc5c(c4)OCO5)CC2)n3C)nc1.Cl', 'melting point', '152 to 160 °C'),
  ('CN(c1ccc(Oc2ccc3cc(C(=O)N4CCN(Cc5ccc(OCC(F)F)cc5)CC4)n(C)c3c2)nc1)S(=O)(=O)c1ccc(Cl)c(Cl)c1', 'melting point', '168.4 to 168.6 °C');

// melting point value for `Br.CCCOc1ccc(CN2CCN(C(=O)c3cc4ccc(Oc5ccc(N(C)C(=O)c6ccc(C(F)(F)F)cc6)cn5)cc4n3C)CC2)cc1` : 246 to 248 °C

----------
ENDPOINT_LABEL: melting point

Example entries and their recorded answers appear below.
INSERT INTO assay_data (molecular_string, endpoint_label, measured) VALUES
  ('CC(C)Cc1ccc(CN2CCN(C(=O)c3cc4cc(Oc5ccc(N(C)C(=O)c6ccc(C(F)(F)F)cc6)cn5)ccc4n3C)CC2)cc1.O=C(O)/C=C\C(=O)O', 'melting point', '147 to 149 °C'),
  ('Br.CN(c1ccc(Oc2ccc3cc(C(=O)N4CCN(Cc5ccc(OCC(F)(F)F)cc5)CC4)n(C)c3c2)nc1)S(=O)(=O)c1ccccc1', 'melting point', '234.6 to 235.2 °C');

molecule `Br.Cn1c(C(=O)N2CCN(Cc3ccccn3)CC2)cc2c(Oc3ccc(NC(=O)c4ccc(C(F)(F)F)cc4)cn3)cccc21` , melting point observed: 186 to 189 °C

----------
ENDPOINT_LABEL: melting point

The reported value for C[C@@H]1CN(Cc2ccccn2)CCN1C(=O)c1cc2cc(Oc3ccc(NC(=O)c4ccc(C(F)(F)F)cc4)cn3)ccc2n1C.O=C(O)C(=O)O.O=C(O)C(=O)O [Example 392] in terms of melting point is 128 to 130 °C

The measured melting point associated with Br.CN(C(=O)c1ccc(C(F)(F)F)cc1)c1ccc(Oc2ccc3c(c2)cc(C(=O)N2CCN(Cc4ccc(C#N)cc4)CC2)n3C)nc1 [Example 339] reads 251 to 255 °C (dec.)

compound Br.CCCOc1ccc(CN2CCN(C(=O)c3cc4cc(Oc5ccc(NC(=O)c6ccc(C(F)(F)F)cc6)cn5)ccc4n3C)CC2)cc1 [Example 481] , melting point observed: 234.7 to 235.1 °C

Br.Br.Cn1c(C(=O)N2CCN(Cc3ccncc3)CC2)cc2cc(Oc3ccc(NC(=O)c4ccc(C(F)(F)F)cc4)cn3)ccc21 [Example 550] has a reported melting point of 211 to 215 °C (dec.)

Reported melting point ( Br.CCOc1ccc(CN2CCN(C(=O)c3cc4cc(Oc5cc(C)c(N(C)C(=O)c6ccc(Cl)c(Cl)c6)cn5)ccc4n3C)CC2)cc1 [Example 366] ) = 201 to 204 °C

// field: melting point; key: Br.Br.CN(C(=O)c1ccc(Cl)c(Cl)c1)c1ccc(Oc2ccc3c(c2)cc(C(=O)N2CCN(Cc4ccncc4)CC2)n3C)nc1 [Example 554] ; value = 204 to 208 °C (dec.)

----------
melting point overview

INSERT INTO measurements (molecular_string, endpoint_label, measured) VALUES
  ('CC(C)Oc1ccc(CN2CCN(C(=O)c3cc4ccc(Oc5ncc(NC(=O)c6ccc(C(F)(F)F)cc6)cn5)cc4n3C)CC2)cc1.Cl', 'melting point', '249.8 to 251 °C');

The reported melting point of the molecule `CN(c1ccc(Oc2ccc3cc(C(=O)N4CCN(Cc5ccc(OC(F)F)cc5)CC4)n(C)c3c2)nc1)S(=O)(=O)c1ccc(Cl)c(Cl)c1` was 143.4 to 147.2 °C

melting point reading for `Cc1ccc(S(=O)(=O)N(C)c2ccc(Oc3ccc4cc(C(=O)N5CCN(Cc6ccc(OCCF)cc6)CC5)n(C)c4c3)nc2)cc1` : 138.7 to 139.8 °C

----------
ENDPOINT_LABEL: melting point

Known results for compounds:
INSERT INTO measurements (compound, measured) VALUES
  ('Br.COc1ccc(CN2CCN(C(=O)c3cc4cc(Oc5ccc(NC(=O)c6ccc(C(F)(F)F)cc6C)cn5)ccc4n3C)CC2)cc1 [Example 14]', '249 to 251 °C'),
  ('Cn1c(C(=O)N2CCN(Cc3ccc4c(c3)OCO4)CC2)cc2cc(Oc3ccc(NC(=O)c4ccc(-n5cccc5)nc4)cn3)ccc21 [Example 225]', '155 to 158 °C'),
  ('Cc1ccc(C(=O)N(C)c2ccc(Oc3ccc4cc(C(=O)N5CCN(Cc6ccc(OC(C)C)cc6)CC5)n(C)c4c3)nc2)cc1.Cl', '230.1 to 232 °C');

Reported melting point for CC(C)Oc1ccc(CN2CCN(C(=O)c3cc4ccc(Oc5ncc(N(C)S(C)(=O)=O)cn5)cc4n3C)CC2)cc1 [Example 45] was 134.3 to 135.6 °C

Entry Br.Cn1c(C(=O)N2CCN(Cc3ccc4c(c3)OCO4)CC2)cc2cc(Oc3ccc(NC(=O)c4ccc(-n5cccc5)cc4)cn3)ccc21 [Example 11] — recorded melting point = 227 to 232 °C (dec.)

According to the records, this compound Br.CCCOc1ccc(CN2CCN(C(=O)c3cc4cc(Oc5ccc(NC(=O)c6ccc(Cl)c(Cl)c6)cn5)ccc4n3C)CC2)cc1 [Example 369] displays melting point of 249 to 252 °C (dec.)

The measured melting point associated with Br.Cn1c(C(=O)N2CCN(Cc3ccc(OCC(F)F)cc3)CC2)cc2ccc(Oc3ccc(NC(=O)c4ccc(C(F)(F)F)cc4)cn3)cc21 [Example 479] reads 260.7 to 261.2 °C

get_value(item= Cn1c(C(=O)N2CCN(Cc3ccccn3)CC2)cc2cc(Oc3ncc(NC(=O)c4ccc(Cl)c(Cl)c4)cn3)ccc21 [Example 385] , readout=melting point) returns 161 to 163 °C

Br.CCOc1ccc(CN2CCN(C(=O)c3cc4c(C)c(Oc5ccc(N(C)C(=O)c6ccc(C(F)(F)F)cc6)cn5)ccc4n3C)CC2)cc1 [Example 427] yielded melting point of 224 to 226 °C

Noted for `Cc1cc(C(F)(F)F)ccc1C(=O)Nc1ccc(Oc2ccc3cc(C(=O)N4CCN(Cc5ccc(OC(F)F)cc5)CC4)n(C)c3c2)nc1.Cl` : its melting point reads 204.9 to 205.7 °C

----------
Here, each record is paired with measured melting point data.

Some entries whose results are on file:
INSERT INTO assay_data (molecular_string, endpoint_label, measured) VALUES
  ('Cc1cc(C(F)(F)F)ccc1C(=O)Nc1ccc(Oc2ccc3cc(C(=O)N4CCN(Cc5ccc6c(c5)OC(F)(F)O6)CC4)n(C)c3c2)nc1.Cl', 'melting point', '207.9 to 211.5 °C'),
  ('CN(C(=O)c1ccc(C(F)(F)F)cc1O)c1ccc(Oc2ccc3c(c2)cc(C(=O)N2CCN(Cc4ccc(OC(F)F)cc4)CC2)n3C)nc1.O=C(O)C(=O)O', 'melting point', '155 to 160 °C'),
  ('Cc1nc(Oc2ccc3c(c2)cc(C(=O)N2CCN(Cc4ccncc4)CC2)n3C)ccc1N(C)C(=O)c1ccc(C(F)(F)F)cc1.O=C(O)C(=O)O.O=C(O)C(=O)O', 'melting point', '117 to 120 °C'),
  ('Br.Br.COc1ccc(CN2CCN(C(=O)c3cc4cc(Oc5ccc(NC(=O)c6ccc(Cl)c(Cl)c6)cn5)ccc4n3C)CC2)nc1', 'melting point', '223 to 225 °C'),
  ('Br.Cc1ccc(S(=O)(=O)N(C)c2ccc(Oc3ccc4cc(C(=O)N5CCN(Cc6ccc(OCCC(C)C)cc6)CC5)n(C)c4c3)nc2)cc1', 'melting point', '236.5 to 238.3 °C (dec.)');

Record summary for `Cc1ccc(S(=O)(=O)N(C)c2ccc(Oc3ccc4cc(C(=O)N5CCN(Cc6ccc7c(c6)OCO7)CC5)n(C)c4c3)nc2)cc1.Cl` : reported melting point = 242 to 249 °C

Lab book: melting point of `Cc1ccc(S(=O)(=O)N(C)c2ccc(Oc3ccc4cc(C(=O)N5CCN(Cc6ccc(OCC(F)(F)F)cc6)CC5)n(C)c4c3)nc2)cc1.Cl` noted as 246.4 to 247.2 °C

// melting point lookup, compound = `CN(c1ccc(Oc2ccc3cc(C(=O)N4CCN(Cc5ccc(OCC(F)(F)F)cc5)CC4)n(C)c3c2)nc1)S(=O)(=O)c1ccc(C(F)(F)F)cc1.Cl` , result: 256.9 to 257.7 °C

Reported melting point for `Cl.Cn1c(C(=O)N2CCN(Cc3ccc(OC(F)F)cc3)CC2)cc2ccc(Oc3ccc(NC(=O)c4ccc(OC(F)(F)F)cc4)cn3)cc21` was 256.2 to 256.5 °C

The recorded melting point for entry `CC(C)CN1CCN(C(=O)c2cc3ccc(Oc4ccc(N(C)C(=O)c5ccc(C(F)(F)F)cc5)cn4)cc3n2C)CC1.Cl` equals 253.1 to 254.5 °C

The recorded melting point for `Br.Br.Cc1nc(Oc2ccc3c(c2)cc(C(=O)N2CCN(Cc4ccncc4)CC2)n3C)ccc1NC(=O)c1ccc(C(F)(F)F)cc1` is 223 to 225 °C (dec.)
